Entry source: patent US8809347B2

Target: Axl (Homo sapiens)
Construct: Cells: Hela cells; endogenous in cells
Assay: Phospho-Akt in-cell Western assay (inhibition of Axl activity)
Details: Hela cells; 1 hr pre-treatment; stimulation by Axl-antibody cross-linking; phospho-Akt chemiluminescence normalized to relative cell number
measuredParameter: IC50

Here is how some compounds turned out for IC50.
Nc1nc(Nc2ccc(N3CCN(c4ccc(F)cc4)CC3)cc2)nn1-c1ncc2c(n1)CCCCCC2 [Compound 13]    > 20000 nM
Cc1csc2c(-n3nc(Nc4ccc5c(c4)CCCN(C4CC6CCC4C6)CC5)nc3N)nc(Cl)nc12 (stereo not drawn) [Compound 38]    < 1000 nM

What value of measured IC50 is listed for Nc1nc(Nc2ccc(N3CCC(N4CCCCCC4)CC3)nc2)nn1-c1ncnc2c1CCCCCC2 [Compound 51] ?
< 1000 nM

###

Biological target: Axl (Homo sapiens)
Construct: Cells: Hela cells; endogenous in cells
Sequence (P30530 26-894): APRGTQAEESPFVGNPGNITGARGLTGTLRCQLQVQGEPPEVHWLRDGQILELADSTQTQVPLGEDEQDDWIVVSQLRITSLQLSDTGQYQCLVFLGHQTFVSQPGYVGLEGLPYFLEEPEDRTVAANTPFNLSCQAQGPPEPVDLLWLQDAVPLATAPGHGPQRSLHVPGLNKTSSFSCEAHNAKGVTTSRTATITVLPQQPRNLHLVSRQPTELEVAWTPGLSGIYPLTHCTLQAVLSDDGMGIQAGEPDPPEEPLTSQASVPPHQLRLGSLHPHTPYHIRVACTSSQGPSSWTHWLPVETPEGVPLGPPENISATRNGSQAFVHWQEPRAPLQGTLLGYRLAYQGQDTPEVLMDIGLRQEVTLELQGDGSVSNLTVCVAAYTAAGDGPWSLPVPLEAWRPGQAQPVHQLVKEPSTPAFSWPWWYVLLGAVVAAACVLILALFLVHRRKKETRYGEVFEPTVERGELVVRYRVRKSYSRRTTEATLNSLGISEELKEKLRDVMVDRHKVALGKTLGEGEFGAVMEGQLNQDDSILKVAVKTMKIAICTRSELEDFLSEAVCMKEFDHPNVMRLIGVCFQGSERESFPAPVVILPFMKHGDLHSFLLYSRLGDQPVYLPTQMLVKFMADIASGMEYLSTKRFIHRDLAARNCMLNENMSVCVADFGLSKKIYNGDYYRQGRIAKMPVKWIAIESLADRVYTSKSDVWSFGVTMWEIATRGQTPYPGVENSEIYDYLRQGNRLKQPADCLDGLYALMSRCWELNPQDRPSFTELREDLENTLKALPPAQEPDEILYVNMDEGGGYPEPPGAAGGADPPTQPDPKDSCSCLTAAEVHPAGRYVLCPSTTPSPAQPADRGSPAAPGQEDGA
Assay: Phospho-Akt in-cell Western assay (inhibition of Axl activity)
Details: Hela cells; 1 hr pre-treatment; stimulation by Axl-antibody cross-linking; phospho-Akt chemiluminescence normalized to relative cell number
measuredParameter: IC50

Consider the reported IC50 for these compounds:
Nc1nc(Nc2ccc(OCCN3CCCC3)cc2)nn1-c1cc(-c2ccccc2)c2c(n1)CCCCCC2    1000 to 10000 nM
Cc1csc2c(-n3nc(Nc4ccc5c(c4)C(=O)NCCCC5)nc3N)ncnc12    1000 to 10000 nM
CN1CCN(Cc2ccc(Nc3nc(N)n(-c4ncc5c(n4)CCCCCC5)n3)cc2)CC1    1000 to 10000 nM
Cc1csc2c(-n3nc(Nc4ccc5c(c4)OCCCCO5)nc3N)nc(Cl)nc12    < 1000 nM
Nc1nc(Nc2ccc(OCCN3CCCC3)cc2)nn1-c1ccc2c(n1)CCCCCC2    < 1000 nM

GET /values?readout=IC50&item= Cc1csc2c(-n3nc(Nc4ccc5c(c4)CCCN(C4CCCC4)CC5)nc3N)ncnc12
< 1000 nM

Would you kindly share the measured IC50 for CN(C)[C@@H]1CCN(c2ccc(Nc3nc(N)n(-c4ncc5c(n4)CCCCCC5)n3)cc2)C1 ?
1000 to 10000 nM

What IC50 value was documented for this compound, CN1CCCN(c2ccc(Nc3nc(N)n(-c4ncc5c(n4)CCCCCC5)n3)cc2F)CC1 ?
< 1000 nM
